# Tested on: CCRIS mutagenicity, Ames/micronucleus/aberration tests
# procedure summary: CCRIS mutagenicity studies
# assay conditions: Test System: AMES SALMONELLA TYPHIMURIUM; Strain/Indicator: TA100; Metabolic Activation: RAT, LIVER, S-9, AROCLOR 1254; Method: STANDARD PLATE
# From the text: The CCRIS database contains chemical records with carcinogenicity, mutagenicity, tumor promotion, and tumor inhibition test results. It was developed by the National Cancer Institute (NCI). Data are derived from studies cited in primary journals, current awareness tools, NCI reports, and other sources. Test results have been reviewed by experts in carcinogenesis and mutagenesis. CCRIS provides historical information from the years 1985 - 2011. It is no longer updated. […]
Activity calls are given as the source filed them. No rule for the calls is given here.
Output constraint: value belongs to y for active, n for inactive

Identify the outcome logged in this assay for the compound shown: c1ccc2cc3c(ccc4cccnc43)cc2c1
n

Identify the outcome logged in this assay for the compound shown: Cc1cc(-c2ccc(N=Nc3cc(S(=O)(=O)O)c4ccccc4c3N)c(C)c2)ccc1N=Nc1cc(S(=O)(=O)O)c2ccccc2c1N
n

Identify the outcome logged in this assay for the compound shown: Nc1ncnc2c1ncn2Cc1ccccc1
n

Identify the outcome logged in this assay for the compound shown: Cc1ccc(S(=O)(=O)NN)cc1
y

Identify the outcome logged in this assay for the compound shown: CC1(C)C(=O)[C@]2(C)CC[C@H]1C2
n

Identify the outcome logged in this assay for the compound shown: CC(=O)N[C@@H](C(=O)N(CC(=O)O)N=O)C(C)C
y

Identify the outcome logged in this assay for the compound shown: O=C(O)Nc1ccccc1
n

Identify the outcome logged in this assay for the compound shown: CC(C)=C[C@@H]1[C@@H](C(=O)OCc2coc(Cc3ccccc3)c2)C1(C)C
n

Identify the outcome logged in this assay for the compound shown: N#Cc1cc([N+](=O)[O-])ccc1N=Nc1ccc(N(CCO)CCO)cc1
y

Identify the outcome logged in this assay for the compound shown: Nc1ncnc2c1ncn2C(c1ccccc1)c1ccccc1
n

Identify the outcome logged in this assay for the compound shown: O=CN(O)c1ccc(Cl)cc1
y

Identify the outcome logged in this assay for the compound shown: N=C1CCC(=N)c2c1c(O)c1ccccc1c2O
n

---

# System: CCRIS mutagenicity, Ames/micronucleus/aberration tests
# procedure summary: CCRIS mutagenicity studies
# assay conditions: Test System: AMES SALMONELLA TYPHIMURIUM; Strain/Indicator: TA98; Metabolic Activation: RAT, LIVER, S-9, AROCLOR 1254; Method: PREINCUBATION
Active and inactive are the calls of the source. No rule for the calls is given here.
Output constraint: value belongs to True for active, False for inactive

Identify the outcome logged in this assay for the molecule shown: [Li+]
False

Identify the outcome logged in this assay for the molecule shown: CCOCc1c(O)cc2c(c1O)C(=O)c1ccccc1C2=O
True

Identify the outcome logged in this assay for the molecule shown: COc1cc(C)cc2c(O)c(-c3c(C)cc4c(O)ccc(O)c4c3OC)cc(O)c12
False

Identify the outcome logged in this assay for the molecule shown: CC(=O)OC1CC(C)OC(C)O1 (configuration not stated)
False

Identify the outcome logged in this assay for the molecule shown: O=[N+]([O-])c1ccc(Nc2ccc(Nc3ccccc3)c(S(=O)(=O)O)c2)c([N+](=O)[O-])c1
True

Identify the outcome logged in this assay for the molecule shown: OC1CCCCC1
False

Identify the outcome logged in this assay for the molecule shown: OB(O)O
False

These entries and their values trace back to PubChem BioAssay AID1259407.
